Species: Homo sapiens
method-notes: Selectivity ratio of IC50 for His-tagged BRD4 BD1 (unknown origin) using biotinylated-JQ1 peptide as substrate to IC50 for His-tagged CBP (unknown origin) using biotinylated-H3K56ac peptide as substrate incubated for 1 hr by AlphaScreen assay
measure: Ratio IC50

The cases that follow already have their Ratio IC50 on record.
Which Ratio IC50 value is on record for COc1ccc(CCc2nc3cc(-c4c(C)noc4C)ccn3c2NCCN2CCOCC2)cc1 ?
7

Check COc1ccc(CCc2nc3cc(-c4c(C)noc4C)ccn3c2NC(C)C)cc1OC too.
6

[1] Cc1noc2cc(-c3ccn4c(NC5CCCCC5)c(CCc5ccccc5)nc4c3)ccc12
[2] COc1ccc(CCc2nc3cc(-c4c(C)noc4C)ccn3c2NC23CC4CC(CC(C4)C2)C3)cc1
[3] CCOc1ccc(CCc2nc3cc(-c4c(C)noc4C)ccn3c2NC2CCCCC2)cc1
[4] COc1ccc(CCCc2nc3cc(-c4c(C)noc4C)ccn3c2NC2CCCCC2)cc1Cl
hey, can you rank those compounds up there by Ratio IC50? biggest number first please Give me the labels in the order the question wants.
3, 2, 4, 1
(3: 30, 2: 8, 4: 3, 1: 0.06)

###

system-name: Bromodomain-containing protein 4 (Homo sapiens)
method-notes: Inhibition of His-tagged BRD4 BD1 (unknown origin) using biotinylated-JQ1 peptide as substrate incubated for 1 hr by AlphaScreen assay
compounds and their reported IC50

The cases that follow already have their IC50 on record.
Which IC50 value is on record for COc1ccc(CCc2nc3cc(-c4c(C)noc4C)ccn3c2NC(C)(C)CC(C)(C)C)cc1 ?
> 50 µM

Check CCOc1ccc(CCc2nc3cc(-c4c(C)noc4C)ccn3c2NC2CCCCC2)cc1Cl too.
> 50 µM

Check COc1ccc(CCc2nc3cc(-c4c(C)noc4C)ccc3n2C[C@H](C)N2CCOCC2)cc1Cl too.
7.94 µM

Check COc1ccc(CCCc2nc3cc(-c4c(C)noc4C)ccn3c2NC2CCCCC2)cc1Cl too.
24.5 µM

More entries:
Which IC50 value is on record for COc1ccc(-c2nc3cc(-c4c(C)noc4C)ccn3c2NC2CCCCC2)cc1 ?
> 50 µM

Check COc1ccc(-c2nc3cc(-c4c(C)noc4C)ccn3c2NC23CC4CC(CC(C4)C2)C3)cc1 too.
> 50 µM

Check COc1ccc(CCc2nc3cc(-c4c(C)noc4C)ccn3c2NC(C)(C)C)cc1 too.
> 50 µM

Check Cc1noc(C)c1-c1ccn2c(NC(C)(C)CC(C)(C)C)c(CCc3ccc(OC(C)C)cc3)nc2c1 too.
> 50 µM

Check COc1ccc(-c2nc3cc(C)cc(C)n3c2NC23CC4CC(CC(C4)C2)C3)cc1 too.
> 50 µM

Check Cc1[nH]nc2cc(-c3ccn4c(NC5CCCCC5)c(CCc5ccccc5)nc4c3)ccc12 too.
0.51 µM

Check COc1ccc(-c2nc3cc(C)cc(C)n3c2NC(C)(C)CC(C)(C)C)cc1 too.
> 50 µM

Check CCOc1ccc(CCc2nc3cc(-c4c(C)noc4C)ccn3c2NC(C)(C)CC(C)(C)C)cc1Cl too.
> 50 µM

###

system-name: CREB-binding protein (Homo sapiens, UniProt Q92793)
Sequence (Q92793 whole entry, the tested form may be a part): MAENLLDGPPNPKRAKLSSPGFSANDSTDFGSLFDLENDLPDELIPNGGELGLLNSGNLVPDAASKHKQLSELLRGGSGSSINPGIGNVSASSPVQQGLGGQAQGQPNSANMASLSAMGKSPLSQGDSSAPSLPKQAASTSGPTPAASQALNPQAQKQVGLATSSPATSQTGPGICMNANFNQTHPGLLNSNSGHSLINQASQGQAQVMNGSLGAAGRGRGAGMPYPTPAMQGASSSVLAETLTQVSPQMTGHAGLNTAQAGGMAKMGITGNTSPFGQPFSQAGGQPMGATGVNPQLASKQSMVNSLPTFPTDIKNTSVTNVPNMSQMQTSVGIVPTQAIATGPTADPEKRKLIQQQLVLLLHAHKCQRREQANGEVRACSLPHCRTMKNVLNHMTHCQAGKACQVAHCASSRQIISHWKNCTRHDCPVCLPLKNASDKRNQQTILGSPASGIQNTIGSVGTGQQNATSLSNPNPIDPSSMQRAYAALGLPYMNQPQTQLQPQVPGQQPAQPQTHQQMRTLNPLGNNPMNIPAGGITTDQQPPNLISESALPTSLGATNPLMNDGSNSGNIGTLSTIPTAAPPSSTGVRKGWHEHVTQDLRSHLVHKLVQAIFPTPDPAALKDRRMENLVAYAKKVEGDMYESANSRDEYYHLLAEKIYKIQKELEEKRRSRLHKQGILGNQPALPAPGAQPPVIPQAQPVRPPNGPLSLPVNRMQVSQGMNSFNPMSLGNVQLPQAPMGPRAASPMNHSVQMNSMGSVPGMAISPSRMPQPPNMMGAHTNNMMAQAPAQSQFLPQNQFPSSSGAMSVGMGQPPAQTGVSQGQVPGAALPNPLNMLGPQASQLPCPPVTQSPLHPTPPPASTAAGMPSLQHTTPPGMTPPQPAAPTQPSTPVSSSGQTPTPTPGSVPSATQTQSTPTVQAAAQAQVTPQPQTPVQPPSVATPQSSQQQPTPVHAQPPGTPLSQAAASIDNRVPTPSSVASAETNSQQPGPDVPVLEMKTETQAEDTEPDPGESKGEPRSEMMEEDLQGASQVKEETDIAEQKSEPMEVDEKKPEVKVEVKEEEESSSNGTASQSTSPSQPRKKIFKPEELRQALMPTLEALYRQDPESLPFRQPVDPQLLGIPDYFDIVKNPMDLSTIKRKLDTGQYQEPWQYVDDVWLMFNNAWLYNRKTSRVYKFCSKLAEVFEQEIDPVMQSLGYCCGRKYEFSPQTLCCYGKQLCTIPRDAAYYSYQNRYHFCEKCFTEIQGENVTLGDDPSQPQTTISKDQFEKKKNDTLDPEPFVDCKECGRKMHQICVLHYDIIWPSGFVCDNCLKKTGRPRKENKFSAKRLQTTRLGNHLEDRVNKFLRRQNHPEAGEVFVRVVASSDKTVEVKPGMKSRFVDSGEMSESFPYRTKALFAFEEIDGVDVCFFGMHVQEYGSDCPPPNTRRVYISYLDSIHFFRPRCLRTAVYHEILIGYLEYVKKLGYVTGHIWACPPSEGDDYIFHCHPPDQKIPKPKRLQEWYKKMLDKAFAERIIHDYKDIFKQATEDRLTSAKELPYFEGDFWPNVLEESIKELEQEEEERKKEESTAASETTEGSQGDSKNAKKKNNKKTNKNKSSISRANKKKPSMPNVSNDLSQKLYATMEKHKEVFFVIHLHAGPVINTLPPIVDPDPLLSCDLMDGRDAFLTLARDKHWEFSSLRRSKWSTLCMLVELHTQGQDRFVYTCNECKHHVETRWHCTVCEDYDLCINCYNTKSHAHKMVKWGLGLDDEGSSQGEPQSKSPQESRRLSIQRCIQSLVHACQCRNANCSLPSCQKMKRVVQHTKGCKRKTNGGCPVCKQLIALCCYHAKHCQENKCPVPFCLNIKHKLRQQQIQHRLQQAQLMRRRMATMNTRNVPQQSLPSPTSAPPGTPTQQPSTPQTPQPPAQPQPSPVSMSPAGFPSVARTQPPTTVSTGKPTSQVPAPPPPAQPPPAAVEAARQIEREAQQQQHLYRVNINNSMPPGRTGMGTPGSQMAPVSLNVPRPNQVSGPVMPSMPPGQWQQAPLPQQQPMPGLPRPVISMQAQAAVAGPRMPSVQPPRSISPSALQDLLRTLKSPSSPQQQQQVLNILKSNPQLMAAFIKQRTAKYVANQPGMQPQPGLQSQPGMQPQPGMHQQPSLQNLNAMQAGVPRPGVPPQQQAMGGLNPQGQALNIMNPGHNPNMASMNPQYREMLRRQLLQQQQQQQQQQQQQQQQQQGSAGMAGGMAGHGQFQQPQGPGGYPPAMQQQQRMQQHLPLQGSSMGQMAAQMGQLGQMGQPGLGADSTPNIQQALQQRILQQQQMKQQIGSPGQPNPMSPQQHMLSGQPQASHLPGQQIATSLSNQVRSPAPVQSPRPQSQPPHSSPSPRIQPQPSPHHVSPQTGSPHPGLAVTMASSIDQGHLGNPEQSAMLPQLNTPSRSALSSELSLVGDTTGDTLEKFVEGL
method-notes: Binding affinity to human partial length CREBBP (R1081 to G1197 residues) expressed in bacterial expression system by BromoELECT assay
pKd: −log10 of the molar value.
measure: pKd

Can you look up pKd on CREB-binding protein (Homo sapiens, UniProt Q92793) for COc1ccc(CCc2nc3cc(-c4c(C)noc4C)ccn3c2NC2CCCCC2)cc1 ?
6.58

Check COc1ccc(CCc2nc3cc(-c4c(C)noc4C)ccn3c2NC2CCCCC2)cc1Cl too.
6.50

###

system-name: Bromodomain-containing protein 4 (Homo sapiens, UniProt O60885)
method-notes: Binding affinity to human partial length BRD4 bromodomain 1 long isoform (N44 to E168 residues) expressed in bacterial expression system assessed as melting temperature by differential scanning fluorometry (reference value: 50.1 degreeC)
measure: Tm (°C)

Can you look up Tm on Bromodomain-containing protein 4 (Homo sapiens, UniProt O60885) for COc1ccc(CCCc2nc3cc(-c4c(C)noc4C)ccn3c2NC2CCCCC2)cc1Cl ?
51.6

Check COc1ccc(CCc2nc3cc(-c4c(C)noc4C)ccn3c2NC2CCCCC2)cc1Cl too.
50.1

Check COc1ccc(CCc2nc3cc(-c4c(C)noc4C)ccn3c2NC2CCCCC2)cc1 too.
51.1

Check Cc1noc(C)c1-c1ccn2c(NC3CCCCC3)c(CCc3ccccc3)nc2c1 too.
51

###

system-name: Histone acetyltransferase p300 (Homo sapiens)
Sequence (Q09472 whole entry, the tested form may be a part): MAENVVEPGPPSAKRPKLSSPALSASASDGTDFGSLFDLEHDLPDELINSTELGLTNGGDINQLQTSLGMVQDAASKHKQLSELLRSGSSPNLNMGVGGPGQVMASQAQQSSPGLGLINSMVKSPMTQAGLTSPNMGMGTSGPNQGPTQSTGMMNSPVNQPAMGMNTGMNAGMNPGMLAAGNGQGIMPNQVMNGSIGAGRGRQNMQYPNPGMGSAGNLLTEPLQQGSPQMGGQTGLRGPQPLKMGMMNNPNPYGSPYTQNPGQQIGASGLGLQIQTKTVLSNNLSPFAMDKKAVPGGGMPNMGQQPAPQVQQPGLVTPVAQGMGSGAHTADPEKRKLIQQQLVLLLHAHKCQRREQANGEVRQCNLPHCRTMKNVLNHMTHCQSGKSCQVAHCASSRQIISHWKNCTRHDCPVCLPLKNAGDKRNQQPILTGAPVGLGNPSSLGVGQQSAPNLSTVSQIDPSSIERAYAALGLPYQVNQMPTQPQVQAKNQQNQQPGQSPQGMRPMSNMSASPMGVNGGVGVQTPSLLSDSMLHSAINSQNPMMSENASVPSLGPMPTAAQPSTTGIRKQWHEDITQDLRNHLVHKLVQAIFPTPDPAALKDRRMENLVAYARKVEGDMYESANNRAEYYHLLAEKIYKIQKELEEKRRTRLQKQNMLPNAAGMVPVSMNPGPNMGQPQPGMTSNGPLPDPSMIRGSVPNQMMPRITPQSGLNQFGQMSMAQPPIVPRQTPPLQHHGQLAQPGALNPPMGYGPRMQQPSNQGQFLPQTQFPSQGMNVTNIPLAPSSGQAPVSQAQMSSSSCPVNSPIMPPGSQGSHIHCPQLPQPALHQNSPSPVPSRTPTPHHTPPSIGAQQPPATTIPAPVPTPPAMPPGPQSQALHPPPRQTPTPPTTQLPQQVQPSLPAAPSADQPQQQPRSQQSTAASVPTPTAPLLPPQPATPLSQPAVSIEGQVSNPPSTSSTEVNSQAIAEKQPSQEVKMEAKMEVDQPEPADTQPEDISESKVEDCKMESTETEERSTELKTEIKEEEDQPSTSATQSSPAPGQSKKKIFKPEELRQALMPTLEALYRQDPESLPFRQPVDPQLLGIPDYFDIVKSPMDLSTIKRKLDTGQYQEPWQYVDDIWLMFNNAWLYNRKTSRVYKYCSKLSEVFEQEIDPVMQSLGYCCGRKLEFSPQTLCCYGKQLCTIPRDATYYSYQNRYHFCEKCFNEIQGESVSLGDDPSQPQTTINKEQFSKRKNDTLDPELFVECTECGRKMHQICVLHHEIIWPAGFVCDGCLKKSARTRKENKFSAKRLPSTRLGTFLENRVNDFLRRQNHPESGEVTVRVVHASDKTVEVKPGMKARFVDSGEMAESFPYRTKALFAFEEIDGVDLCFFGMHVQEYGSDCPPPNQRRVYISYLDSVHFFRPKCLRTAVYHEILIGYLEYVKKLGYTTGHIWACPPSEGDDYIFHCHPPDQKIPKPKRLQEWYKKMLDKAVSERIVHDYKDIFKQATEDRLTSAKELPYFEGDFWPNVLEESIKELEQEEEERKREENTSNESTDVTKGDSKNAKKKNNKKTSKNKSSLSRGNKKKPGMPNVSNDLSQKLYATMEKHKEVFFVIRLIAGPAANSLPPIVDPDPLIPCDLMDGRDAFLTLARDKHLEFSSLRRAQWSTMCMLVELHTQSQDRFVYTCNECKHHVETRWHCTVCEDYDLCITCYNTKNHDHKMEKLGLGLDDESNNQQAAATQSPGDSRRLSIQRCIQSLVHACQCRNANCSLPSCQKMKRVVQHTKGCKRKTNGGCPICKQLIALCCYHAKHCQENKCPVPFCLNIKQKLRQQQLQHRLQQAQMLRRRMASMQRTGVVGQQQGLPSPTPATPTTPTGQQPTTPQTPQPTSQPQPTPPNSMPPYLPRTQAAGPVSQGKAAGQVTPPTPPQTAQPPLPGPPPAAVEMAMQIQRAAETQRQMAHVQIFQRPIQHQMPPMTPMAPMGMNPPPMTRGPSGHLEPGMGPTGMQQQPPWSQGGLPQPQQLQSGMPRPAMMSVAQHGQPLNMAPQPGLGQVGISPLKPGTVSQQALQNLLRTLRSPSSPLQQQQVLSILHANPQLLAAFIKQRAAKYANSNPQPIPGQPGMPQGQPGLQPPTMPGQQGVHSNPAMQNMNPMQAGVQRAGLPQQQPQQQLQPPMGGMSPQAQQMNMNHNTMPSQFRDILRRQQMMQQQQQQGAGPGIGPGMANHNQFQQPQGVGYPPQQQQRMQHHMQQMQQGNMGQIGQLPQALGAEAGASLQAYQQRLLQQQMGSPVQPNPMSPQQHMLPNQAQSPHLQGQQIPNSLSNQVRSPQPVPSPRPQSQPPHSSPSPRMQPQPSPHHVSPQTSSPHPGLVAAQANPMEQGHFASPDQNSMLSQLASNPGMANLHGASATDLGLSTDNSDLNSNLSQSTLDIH
method-notes: Binding affinity to human partial length EP300 (A1040 to G1161 residues) expressed in bacterial expression system assessed as melting temperature by differential scanning fluorometry (reference value: 42.1 degreeC)
measure: Tm (°C)

Which Tm value is on record for COc1ccc(CCc2nc3cc(-c4c(C)noc4C)ccn3c2NC2CCCCC2)cc1Cl ?
47

Check Cc1noc(C)c1-c1ccn2c(NC3CCCCC3)c(CCc3ccccc3)nc2c1 too.
44.7

Check COc1ccc(CCc2nc3cc(-c4c(C)noc4C)ccn3c2NC2CCCCC2)cc1 too.
46.8

Check COc1ccc(CCCc2nc3cc(-c4c(C)noc4C)ccn3c2NC2CCCCC2)cc1Cl too.
50.6

###

Species: Homo sapiens
method-notes: Selectivity ratio of IC50 for His-tagged BRD4 BD1 (unknown origin) using biotinylated-JQ1 peptide as substrate to IC50 for His-tagged CBP (unknown origin) using biotinylated-H3K56ac peptide as substrate incubated for 1 hr by AlphaScreen assay
measure: Ratio IC50

[P] COc1ccc(CCc2nc3cc(-c4c(C)noc4C)ccn3c2NC2CCCCC2)cc1OC
[Q] COc1ccc(CCc2nc3cc(-c4c(C)noc4C)ccn3c2NC(C)C)cc1
[R] Cc1[nH]nc2cc(-c3ccn4c(NC5CCCCC5)c(CCc5ccccc5)nc4c3)ccc12
[S] Cc1noc(C)c1-c1ccn2c(NC(C)(C)CC(C)(C)C)c(CCc3ccc(OC(C)C)cc3)nc2c1
[T] CCOc1ccc(CCc2nc3cc(-c4c(C)noc4C)ccn3c2NC2CCCCC2)cc1Cl
Which order do these items fall in when sorted by Ratio IC50 from largest to smallest? Give me the labels in the order the question wants.
Q, T, P, S, R
(Q: 34, T: 20, P: 8, S: 1, R: 0.06)

[1] COc1ccc(Cc2nc3cc(-c4c(C)noc4C)ccn3c2NC2CCCCC2)cc1
[2] Cc1noc(C)c1-c1ccn2c(NC(C)(C)C)c(CCc3ccccc3)nc2c1
[3] COc1ccc(CCc2nc3cc(-c4c(C)noc4C)ccn3c2NC2CCCCC2)cc1
hey, can you rank those molecules up there by Ratio IC50? biggest number first please Give me the labels in the order the question wants.
3, 2, 1

[1] Cc1noc(C)c1-c1ccn2c(NC34CC5CC(CC(C5)C3)C4)c(CCc3ccccc3)nc2c1
[2] COc1ccc(CCCc2nc3cc(-c4c(C)noc4C)ccn3c2NC2CCCCC2)cc1
Hi! Which is lower in terms of Ratio IC50, the first one 1 or the second one 2 ? Give the label of your selection.
2
(2: 3, 1: 7)

[1] COc1ccc(CCc2nc3cc(-c4c(C)noc4C)ccn3c2NCc2ccc(Cl)cc2)cc1
[2] Cc1noc(C)c1-c1ccn2c(NC(C)(C)CC(C)(C)C)c(CCc3ccccc3)nc2c1
Hi! Which is lower in terms of Ratio IC50, the first one 1 or the second one 2 ? Give the label of your selection.
2

[a] COc1ccc(CCc2nc3cc(-c4c(C)noc4C)ccn3c2NCc2ccccc2)cc1
[b] CCCOc1ccc(CCc2nc3cc(-c4c(C)noc4C)ccn3c2NC2CCCCC2)cc1
Endpoint returns the identifier whose Ratio IC50 is numerically larger, either a or b . Give the label of your selection.
b
(b: 28, a: 4)

[1] CN1Cc2cc(-c3ccn4c(NC5CCCCC5)c(CCc5ccccc5)nc4c3)ccc2NC1=O
[2] Cc1noc(C)c1-c1ccn2c(NC3CCCCC3)c(CCc3ccccc3)nc2c1
Endpoint returns the identifier whose Ratio IC50 is numerically larger, either 1 or 2 . Give the label of your selection.
2
(2: 10, 1: 1)

###

Organism: Homo sapiens
method-notes: Selectivity ratio of IC50 for His-tagged BRD4 BD1 (unknown origin) using biotinylated-JQ1 peptide as substrate to IC50 for His-tagged CBP (unknown origin) using biotinylated-H3K56ac peptide as substrate incubated for 1 hr by AlphaScreen assay
measure: Ratio IC50

The cases that follow already have their Ratio IC50 on record.
Which Ratio IC50 value is on record for COc1ccc(CCc2nc3cc(-c4c(C)noc4C)ccn3c2NC(C)(C)CC(C)(C)C)cc1 ?
> 2

Check COc1ccc(-c2nc3cc(-c4c(C)noc4C)ccn3c2NC2CCCCC2)cc1 too.
> 4

Could you now look at the following compound, please?
Which Ratio IC50 value is on record for COc1ccc(-c2nc3cc(C)cc(C)n3c2NC23CC4CC(CC(C4)C2)C3)cc1 ?
> 3
